Species on record: Rattus norvegicus
experiment-notes: DrugMatrix - Regimen: Daily Repeat
Assay type: toxicity, organism-based, Sprague-Dawley
Parameters: regimen Daily Repeat, gender Male, age 6-8 weeks
condition-parameters: in vivo, po, 10 mg/kg, 72 h, tissue Blood, route oral GAVAGE, dose level Low, time 3 day, […]
parameter: MEAN CORPUSCULAR VOLUME (fL)

{"molecule": "COc1ccc2cc([C@H](C)C(=O)O)ccc2c1", "data-value": 63.73}
{"molecule": "COCCOC(=O)C1=C(C)NC(C)=C(C(=O)OC(C)C)C1c1cccc([N+](=O)[O-])c1 (centres undefined)", "data-value": 63.37}
{"molecule": "CCOC(=O)C1=C(C)NC(C)=C(C(=O)OC)C1c1cccc([N+](=O)[O-])c1 (centres undefined)", "data-value": 62.6}
{"molecule": "CC(C)CC(N(C)C)C1(c2ccc(Cl)cc2)CCC1 (centres undefined)", "data-value": 63.67}
